- TARGET OF ASSAY: T1, PKC-δ (purified isoform) (Homo sapiens (Human), UniProt Q05655 1-676)
- T1 construct: also called PKC-delta; PKCdelta
- T1 sequence (Q05655 whole entry, stated change not applied, canonical isoform): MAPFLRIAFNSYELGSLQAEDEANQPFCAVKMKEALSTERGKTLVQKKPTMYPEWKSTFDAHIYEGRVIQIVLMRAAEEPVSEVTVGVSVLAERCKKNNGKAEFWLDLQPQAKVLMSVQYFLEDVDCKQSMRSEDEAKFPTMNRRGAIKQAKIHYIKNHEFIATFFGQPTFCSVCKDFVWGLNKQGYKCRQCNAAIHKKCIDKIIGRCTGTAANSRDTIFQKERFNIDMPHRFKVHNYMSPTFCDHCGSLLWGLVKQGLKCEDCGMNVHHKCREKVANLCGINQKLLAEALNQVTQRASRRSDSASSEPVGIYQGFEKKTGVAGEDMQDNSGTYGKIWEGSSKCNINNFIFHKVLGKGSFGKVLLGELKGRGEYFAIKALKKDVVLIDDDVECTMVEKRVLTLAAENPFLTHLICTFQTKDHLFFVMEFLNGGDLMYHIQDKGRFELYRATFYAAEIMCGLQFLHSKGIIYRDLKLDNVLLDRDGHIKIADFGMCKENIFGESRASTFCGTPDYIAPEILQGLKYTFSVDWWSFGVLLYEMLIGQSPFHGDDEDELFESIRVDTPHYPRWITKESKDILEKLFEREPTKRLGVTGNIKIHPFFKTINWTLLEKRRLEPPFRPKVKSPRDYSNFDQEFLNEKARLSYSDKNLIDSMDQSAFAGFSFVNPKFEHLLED
- EXPERIMENT NOTES: competitive ELISA on purified PKC-δ vs anti-PKC-δ Ab; PRE 200 µM
OBSERVATION TYPE: binding capacity (%)

Consider the worked cases shown below.
Ac-KDANQLIGISI-NH2 (Synthetic peptide; also called peptide PRE 6) [PRE 6]; 14
Ac-KDAQNLI-NH2 (Synthetic peptide; also called peptide PRE 12; Ac-KDAQNLI-NH2) [PRE 12]; 23.5

[A] Ac-AKGIQEVKGGKDAQNLIGISI-NH2 (Synthetic peptide; also called peptide PRE 5) [PRE 5]
[B] Ac-KDAQNLIGISI-NH2 (Synthetic peptide; also called peptide PRE 4) [PRE 4]
[C] ILEDKGGDAQNLIGISI (Synthetic peptide; termini given free; also called peptide PRE 8) [PRE 8]
[D] Ac-AKGIQEVKGGDAQNLIGISI-NH2 (Synthetic peptide; also called peptide PRE 3) [PRE 3]
[E] Ac-ISIGILQNADK-NH2 (Synthetic peptide (retro form of PRE 4); also called peptide PRE 7) [PRE 7]
Challenge: Please rank these binders by binding capacity (%) in descending order. A complete answer lists every label in the requested sequence.
Response given: D, B, C, A, E
(D: 57%, B: 17.3%, C: 6.68%, A: 4.31%, E: 0%)

[I] Ac-RDAQNLI-NH2 (Synthetic peptide; also called peptide PRE 13; Ac-RDAQNLI-NH2) [PRE 13]
[II] RRKKGGKDFVVKR (Synthetic peptide, solid phase synthesis; termini given free; also called peptide PRE 1) [PRE 1]
Challenge: Please state the entry with greater binding capacity (%) among I and II . Indicate which entry you chose by stating its label.
Response given: II
(II: 49.4%, I: 17.9%)

Measured values drawn from patent US20100041597A1 for this set.
